- tgt: Beta-2 adrenergic receptor (Homo sapiens) (UniProt P07550)
- Sequence (P07550 whole entry, looked up): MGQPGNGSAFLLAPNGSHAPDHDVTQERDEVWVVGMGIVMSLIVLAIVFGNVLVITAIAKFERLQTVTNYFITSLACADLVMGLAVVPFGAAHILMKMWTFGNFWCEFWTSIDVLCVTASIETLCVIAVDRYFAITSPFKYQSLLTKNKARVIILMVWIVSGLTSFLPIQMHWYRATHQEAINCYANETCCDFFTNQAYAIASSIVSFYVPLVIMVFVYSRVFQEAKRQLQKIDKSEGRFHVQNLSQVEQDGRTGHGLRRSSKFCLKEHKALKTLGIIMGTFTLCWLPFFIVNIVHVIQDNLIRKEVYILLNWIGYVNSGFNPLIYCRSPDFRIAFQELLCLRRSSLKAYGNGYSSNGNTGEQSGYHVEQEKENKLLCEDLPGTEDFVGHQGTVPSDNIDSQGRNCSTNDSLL
- assay.protocol: Adrenergic beta2 receptor (ADRB2) small molecule agonists, cell-based qHTS assay (AID 1963593)
- assay.context: CHO-ADRB2 cells, cAMP HTRF, 30 min; series mostly up to 92.4 µM
Inconclusive results are not listed. Activity calls are given as the source filed them. Calls come from the whole dose curve.
Answer with one of the outcomes label 1 for active, label 0 for inactive

Example entries begin here.
>  <compound>
CN1CCC(O)(c2ccc(F)cc2)C(C(=O)c2ccc(F)cc2)C1 (configuration not stated)

>  <category>
label 0

$$$$
>  <compound>
CCOC(=O)c1ncn2c1CN(C)C(=O)c1c(I)cccc1-2

>  <category>
label 0

$$$$
>  <compound>
CCC1(c2cccc(O)c2)CCCCN(C)C1 (configuration not stated)

>  <category>
label 0

$$$$
>  <compound>
COc1ccc(/C(=C/C(=O)N2CCOCC2)c2ccc(Cl)cc2)cc1OC

>  <category>
label 0

$$$$
>  <compound>
C=CCC1(C(C)CC)C(=O)NC(=O)NC1=O (configuration not stated)

>  <category>
label 0

$$$$

Asked: Outcome? CCC(C(N)=O)N1CCCC1=O (configuration not stated)
Given back: label 0

Asked: Lab log entry: CN1C(=O)C(O)N=C(c2ccccc2)c2cc(Cl)ccc21 (configuration not stated) — outcome as called in the assay?
Given back: label 1

###

- assay.protocol: Nuclear factor erythroid 2-related factor 2/antioxidant responsive element (Nrf2/ARE) small molecule agonists: luciferase reporter gene qHTS assay in human keratinocytes (AID 1919969); note: nearly all actives have a fitted effect of over 35% in size
- assay.context: KeratinoSens HaCaT ARE-luciferase, luminescence, 24 h; series mostly up to 92.4 µM
Inconclusive results are not listed. Active and inactive are the calls of the source. The call rests on the fitted dose curve.
In this exercise, the only acceptable responses are label 1 (active), label 0 (inactive)

>  <molecule>
CC(C)N(CCC(C(N)=O)(c1ccccc1)c1ccccn1)C(C)C (stereo not given)

>  <category>
label 0

$$$$
>  <molecule>
CCCCOC(=O)c1ccccc1N

>  <category>
label 0

$$$$
>  <molecule>
COc1cc(CC(C)N)cc(OC)c1OC (stereo not given)

>  <category>
label 0

$$$$
>  <molecule>
COc1cc(Cl)c(OC)cc1Cl

>  <category>
label 0

$$$$
>  <molecule>
C=C(C)C(=O)[O][Sn]([CH2]CCC)([CH2]CCC)[CH2]CCC

>  <category>
label 1

$$$$

Asked: Any idea what this test logged for CCS(=O)(=O)C(C)(C)S(=O)(=O)CC ?
Given back: label 0

###

- tgt: 5-hydroxytryptamine receptor 2A (Homo sapiens) (UniProt P28223)
- Sequence (P28223 whole entry, looked up): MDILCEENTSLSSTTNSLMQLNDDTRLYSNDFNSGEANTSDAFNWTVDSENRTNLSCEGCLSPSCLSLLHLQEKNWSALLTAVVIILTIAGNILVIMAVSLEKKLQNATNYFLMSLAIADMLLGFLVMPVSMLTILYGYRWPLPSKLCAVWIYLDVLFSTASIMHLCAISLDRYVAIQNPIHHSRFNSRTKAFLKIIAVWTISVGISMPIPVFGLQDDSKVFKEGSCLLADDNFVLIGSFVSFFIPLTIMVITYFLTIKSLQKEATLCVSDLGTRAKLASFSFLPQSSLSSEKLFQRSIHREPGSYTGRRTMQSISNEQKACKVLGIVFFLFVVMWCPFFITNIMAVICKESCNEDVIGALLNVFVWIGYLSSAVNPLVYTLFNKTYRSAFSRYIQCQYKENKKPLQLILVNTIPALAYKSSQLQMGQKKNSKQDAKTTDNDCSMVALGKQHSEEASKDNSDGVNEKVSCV
- assay.protocol: 5-hydroxytryptamine receptor 2A (HTR2A) small molecule antagonists, cell-based qHTS assay (AID 1963586); note: nearly all actives have a fitted effect of over 45% in size
- assay.context: HTR2A-CHO cells, DOI-induced calcium flux, fluorescence; series mostly up to 61.5 µM
Records with an inconclusive call do not appear. Active and inactive are the calls of the source. The call rests on the fitted dose curve.
Response enum: true for active, false for inactive

Solved cases (5 shown):
>  <molecule>
NNC(=O)c1cccnc1

>  <category>
false

$$$$
>  <molecule>
COC(=O)COc1ccc(Cl)cc1Cl

>  <category>
false

$$$$
>  <molecule>
C=CC(=C)C

>  <category>
false

$$$$
>  <molecule>
CCCN(CC)CC1COC2(CCC(C(C)(C)C)CC2)O1 (stereo unspecified)

>  <category>
true

$$$$
>  <molecule>
N#CSCc1ccccc1

>  <category>
false

$$$$

Asked: For CC(Cc1ccc2c(c1)OCO2)NO (stereo unspecified) , what call appears in the results of this test?
Given back: true

Asked: Test call, this molecule: N#C/C=C/c1ccccc1
Given back: false

Asked: Just curious, what result did C[N+](C)=CCl get here?
Given back: false

Asked: Given O=S(=O)(NS(=O)(=O)C(F)(F)F)C(F)(F)F , state the outcome it received in this test.
Given back: false

Asked: What call does the record list for CCN(CC)C(=O)[C@@H]1C=C2c3cccc4[nH]cc(c34)C[C@H]2N(C)C1 ?
Given back: false

Asked: Kindly provide the recorded test outcome for the following molecule: NS(=O)(=O)C(F)(F)C(F)(F)C(F)(F)C(F)(F)C(F)(F)C(F)(F)C(F)(F)C(F)(F)F
Given back: false

Asked: Which outcome was assigned to CC(C)N(C(=O)COc1nnc(C(F)(F)F)s1)c1ccc(F)cc1 in this test?
Given back: false

Asked: Field: outcome | Entry: CC[C@H](O)C(C[C@H](C)N(C)C)(c1ccccc1)c1ccccc1
Given back: false

Asked: Could you check what this test reported for CS(=O)(=O)c1ccc(C(=O)C2C(=O)CCCC2=O)c([N+](=O)[O-])c1 ?
Given back: false

Asked: Returns: the outcome recorded for CC(C)CBr in this assay.
Given back: false

Asked: Could you check what this test reported for CCC1(c2ccccc2)C(=O)N(COC)C(=O)N(COC)C1=O ?
Given back: false

Asked: Each molecule tested received a call. Report the one for NNCc1ccccc1 .
Given back: false

Asked: For CCOc1cc(C(C)(C)C)ccc1C1COC(c2c(F)cccc2F)=N1 (stereo unspecified) , what call appears in the results of this test?
Given back: false

Asked: What was the test verdict on O=S(=O)(O)F ?
Given back: false

Asked: I would be grateful if you could indicate the recorded call for CN1[C@@H]2CC[C@H]1CC(O)C2 (stereo partly specified) .
Given back: false

###

- assay.protocol: cAMP Responsive Elements (CRE) small molecule antagonists, cell-based qHTS assay (AID 1963591)
- assay.context: CRE-bla HEK293T, beta-lactamase FRET ratio; series mostly up to 92.4 µM
Records with an inconclusive call do not appear. The source made the active and inactive calls. Calls come from the whole dose curve; as a rule, active = well fitted inhibition curve with a large enough effect in the signal ratio in the repeat runs (not every such curve was filed as active); inconclusive = weak or mixed curves, or effect the other way; inactive = flat fitted curve, though single readings scatter; the % refers to the signal ratio.
Classes to choose from: active, inactive

Check out these entries, answers already filled in.
>  <test.smiles>
Nc1ccc(Sc2ccc(N)cc2)cc1

>  <category>
inactive

$$$$
>  <test.smiles>
O=C=Nc1ccc(Cl)cc1

>  <category>
inactive

$$$$
>  <test.smiles>
O=C(CCl)C(Cl)Cl

>  <category>
active

$$$$
>  <test.smiles>
Cc1ccccc1OP(=O)(Oc1ccccc1C)Oc1ccccc1C

>  <category>
inactive

$$$$
>  <test.smiles>
C[As+](C)(C)CC(=O)[O-]

>  <category>
inactive

$$$$

Asked: What is the recorded call for this compound in the test? CNC(=O)Oc1ccccc1C(C)C
Given back: inactive

Asked: # lookup: test call for O=C1c2ccccc2C(=O)C1C(=O)C(c1ccccc1)c1ccccc1
Given back: inactive

Asked: Check the results log: what was the call for CC(C)=CCOc1c2occc2cc2ccc(=O)oc12 ?
Given back: inactive

Asked: Assay outcome for O=C(CCl)Nc1ccccc1 : what was it?
Given back: inactive

Asked: Record request — test call for C[N+](C)(C)CCOC(=O)C(O)(c1ccccc1)c1ccccc1
Given back: inactive

Asked: // outcome(item) with item = [Cl][Sb]([Cl])[Cl]
Given back: inactive

###

- tgt: 5-hydroxytryptamine receptor 2A (Homo sapiens)
- assay.protocol: 5-hydroxytryptamine receptor 2A (HTR2A) small molecule agonists, cell-based qHTS assay (AID 1963587); note: % is set by controls: 0 for no effect and ±100 for the full control effect; nearly all actives have a fitted effect of over 30% in size
- assay.context: HTR2A-CHO cells, calcium flux fluorescence, agonist mode; series mostly up to 76.8 µM
Results filed as inconclusive are left out. Active and inactive are the calls of the source. Calls follow the shape of the full dose curve.
In this exercise, the only acceptable responses are 1 = active, -1 = inactive

Below are worked cases with known answers.
>  <molecule>
ClC(Cl)C(Cl)Cl

>  <tgt>
5-hydroxytryptamine receptor 2A (Homo sapiens)

>  <category>
-1

$$$$
>  <molecule>
CCOP(=S)(OCC)Oc1ccc(S(C)=O)cc1 (configuration not stated)

>  <tgt>
5-hydroxytryptamine receptor 2A (Homo sapiens)

>  <category>
-1

$$$$
>  <molecule>
O=[N+]([O-])c1cccc2cccc([N+](=O)[O-])c12

>  <tgt>
5-hydroxytryptamine receptor 2A (Homo sapiens)

>  <category>
-1

$$$$

Asked: Would you mind telling me which call this test gave CSC(=O)c1c(C(F)F)nc(C(F)(F)F)c(C(=O)SC)c1CC(C)C ?
Given back: -1

Asked: Which outcome was entered for the molecule CCCCn1cc[n+](C)c1 (tested in a mixture with another compound) in this test?
Given back: -1

Asked: What did this assay record as the result for N#Cc1sc2c(=O)c3ccccc3c(=O)c=2sc1C#N ?
Given back: -1

###

- assay.protocol: p53 small molecule agonists, cell-based qHTS assay: qHTS cell viability counter screen (AID 1963581); note: % is set by controls: 0 for no effect and ±100 for the full control effect; nearly all actives have a fitted effect of over 45% in size
- assay.context: p53RE-bla HCT-116 viability, ATP luminescence, 16 h; series mostly up to 66 µM
Results filed as inconclusive are left out. Activity calls are given as the source filed them. Calls follow the shape of the full dose curve.
Respond only with the outcome that fits, drawn from yes = active, no = inactive

Known results for molecules:
>  <molecule>
N#CC(Br)(Br)C(N)=O

>  <category>
no

$$$$
>  <molecule>
CC(C)(C)C(O)C(Oc1ccc(-c2ccccc2)cc1)n1cncn1 (stereo not drawn)

>  <category>
no

$$$$
>  <molecule>
CC(C)CP(=S)(S)CC(C)C

>  <category>
no

$$$$

Next:
Asked: What was the test verdict on CC(C)c1c(CN(C)C(C)Cc2ccccc2)n(C)n(-c2ccccc2)c1=O (stereo not drawn) ?
Given back: no
